Data origin, for the record: the supplement of paper PMC3545927

- tested_system: furin, P09958;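 note: purified furin at 1:10 enzyme:substrate in 50 mM HEPES pH 7.5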
- Sequence (P09958 whole entry): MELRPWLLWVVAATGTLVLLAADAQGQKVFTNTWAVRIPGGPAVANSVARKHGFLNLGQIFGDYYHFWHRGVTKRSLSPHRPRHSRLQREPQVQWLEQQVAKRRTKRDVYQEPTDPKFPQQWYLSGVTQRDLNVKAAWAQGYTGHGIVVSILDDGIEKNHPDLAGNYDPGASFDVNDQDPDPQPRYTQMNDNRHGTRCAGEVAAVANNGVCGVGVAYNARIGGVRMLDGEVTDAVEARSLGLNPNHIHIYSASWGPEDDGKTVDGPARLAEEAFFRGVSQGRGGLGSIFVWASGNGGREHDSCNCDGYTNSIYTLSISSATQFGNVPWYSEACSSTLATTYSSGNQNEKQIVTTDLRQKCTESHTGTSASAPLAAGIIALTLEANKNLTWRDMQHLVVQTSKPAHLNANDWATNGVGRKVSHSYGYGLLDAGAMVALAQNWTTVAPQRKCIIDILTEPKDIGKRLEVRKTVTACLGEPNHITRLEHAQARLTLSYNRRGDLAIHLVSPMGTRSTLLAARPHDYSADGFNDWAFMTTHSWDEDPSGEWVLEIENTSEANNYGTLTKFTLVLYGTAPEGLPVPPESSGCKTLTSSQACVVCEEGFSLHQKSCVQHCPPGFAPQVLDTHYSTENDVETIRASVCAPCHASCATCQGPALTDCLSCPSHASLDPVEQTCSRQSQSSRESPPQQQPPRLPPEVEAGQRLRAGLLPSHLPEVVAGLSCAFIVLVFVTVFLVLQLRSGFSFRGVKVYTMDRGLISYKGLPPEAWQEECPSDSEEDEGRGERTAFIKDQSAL
- protocol_description: furin cleavage Z-score vs untreated control; higher = more cleavage, active = 3.5 or more, inactive = 1 or less, 8 variable residues between constant flanks
- stated_conditions: 7.5 min
The other results are listed elsewhere or left out. The hit rate among all sequences tested is not known here.
Classes to choose from: active, inactive

Example cases with answers are listed next.
• CAKPQRPRRPAGNASASA [FS-1133] = inactive
• CASSGRSFRSAGNASASA [FS-146] = inactive
• CARESRPRRQAGNASASA [FS-1395] = active

Hi, do you know how CALSGWFTAGAGNASASA [HC1644] came out in this test?
inactive

Entry CAAQAPPPSWAGNASASA [HC959] : call = ?
inactive

What outcome does the record of this test show for CASSGCPERLAGNASASA [HC385] ?
inactive

Recorded call for CASLPCSAHLAGNASASA [HC2485] ?
inactive
